# protocol-text: in vivo
# setup-conditions: rat, iv, 3 mg/kg
# Description: Clearance in rat at 3 mg/kg, iv or 10 mg/kg, po

{"smiles-data": "O=C(O)c1ccc2c(c1)CCCC(c1ccc(Cl)cc1Cl)=C2c1ccc(O[C@H]2CCN(CCCF)C2)cc1", "clearance [mL/min/kg]": 3.17}

====

# protocol-text: in vitro
# setup-conditions: rat, microsomes
# Description: Metabolic stability in rat microsomes assessed as total metabolism
Assign class by metabolised: not lower than 4% means Yes; lower than 4% means No.

{"smiles-data": "Oc1ccc2c(c1)C(c1ccc(O[C@H]3CCN(CCCF)C3)cc1)=C(c1ccc(F)cc1Cl)CCC2", "assigned-category": "Yes"}
{"smiles-data": "Oc1ccc2c(c1)CCCC(c1ccncc1)=C2c1ccc(O[C@H]2CCN(CCCF)C2)cc1", "assigned-category": "Yes"}
{"smiles-data": "Oc1ccc2c(c1)CCCC(c1ccc(F)cc1Cl)=C2c1ccc(O[C@H]2CCN(CCCF)C2)cc1", "assigned-category": "Yes"}
{"smiles-data": "Oc1ccc2c(c1)CCCC(c1cccc(Cl)c1F)=C2c1ccc(O[C@H]2CCN(CCCF)C2)cc1", "assigned-category": "Yes"}
{"smiles-data": "O=C(O)c1ccc2c(c1)CCCC(c1ccc(Cl)cc1)=C2c1ccc(O[C@H]2CCN(CCCF)C2)cc1", "assigned-category": "No"}
{"smiles-data": "Oc1ccc2c(c1)CCCC(c1ccc(Cl)cc1Cl)=C2c1ccc(O[C@H]2CCN(CCCF)C2)cc1", "assigned-category": "Yes"}
{"smiles-data": "O=C(O)c1ccc2c(c1)CCCC(c1cccc(F)c1Cl)=C2c1ccc(O[C@H]2CCN(CCCF)C2)cc1", "assigned-category": "No"}
